- testSummary: Pharmacokinetics and bioavailability test in beagle dogs (Test Example 4)
- Format: in vivo
- statedConditions: dog, in vivo, IV 0.69 mg/kg (calculated based on free base)
property: Tmax (min)
Kindly answer with a numeric value in min, unit omitted.

stdin: # Tmax lookup, item CN1CCC(N2Cc3cc(F)ccc3CN(Cc3ccc(OC4CC4)cc3)C2=O)CC1 [citrate]
stdout: 4.8

====

- testSummary: Pharmacokinetics and bioavailability test in beagle dogs (Test Example 4)
- Format: in vivo
- statedConditions: dog, in vivo, IV 0.69 mg/kg (calculated based on free base)
property: AUC(0-inf)
Be sure to follow the number with its unit.

stdin: # AUC(0-inf) lookup, item CN1CCC(N2Cc3cc(F)ccc3CN(Cc3ccc(OC4CC4)cc3)C2=O)CC1 [citrate]
stdout: 466 ng·h/mL

====

- testSummary: Pharmacokinetics and bioavailability test in beagle dogs (Test Example 3)
- Assay type: in vivo
- statedConditions: dog; PO 5 mg/kg (calculated as free base), capsules, male beagle dogs, plasma; read-out: Cmax
property: Cmax (ng/mL)
Kindly answer with a numeric value in ng/mL, unit omitted.

stdin: # Cmax lookup, item CN1CCC(N2Cc3cc(F)ccc3CN(Cc3ccc(OC4CC4)cc3)C2=O)CC1.O=C(O)CC(O)(CC(=O)O)C(=O)O [Crystalline form II]
stdout: 38.8

====

- testSummary: Pharmacokinetics and bioavailability test in beagle dogs (Test Example 4)
- Assay type: in vivo
- statedConditions: both sexes, dog, plasma, PO 10 mg/kg (calculated based on free base), capsule
property: Cmax (µg/mL)
Kindly answer with a numeric value in µg/mL, unit omitted.

stdin: # Cmax lookup, item CN1CCC(N2Cc3cc(F)ccc3CN(Cc3ccc(OC4CC4)cc3)C2=O)CC1.O=C(O)CC(O)(CC(=O)O)C(=O)O [Crystalline form II]
stdout: 0.754

====

- testSummary: Pharmacokinetics and bioavailability test in beagle dogs (Test Example 4)
- Assay type: in vivo
- statedConditions: dog, in vivo, IV 0.69 mg/kg (calculated based on free base)
property: half-life (h)
Kindly answer with a numeric value in h, unit omitted.

stdin: # half-life lookup, item CN1CCC(N2Cc3cc(F)ccc3CN(Cc3ccc(OC4CC4)cc3)C2=O)CC1 [citrate]
stdout: 2.2

====

- testSummary: Pharmacokinetics and bioavailability test in beagle dogs (Test Example 3)
- Assay type: in vivo
- statedConditions: dog, in vivo; IV 1 mg/kg, male beagle dogs, plasma
property: AUC(0-t) (ng·h/mL)
Kindly answer with a numeric value in ng·h/mL, unit omitted.

stdin: # AUC(0-t) lookup, item CN1CCC(N2Cc3cc(F)ccc3CN(Cc3ccc(OC4CC4)cc3)C2=O)CC1 [citrate]
stdout: 348

====

- testSummary: Pharmacokinetics and bioavailability test in beagle dogs (Test Example 4)
- Format: in vivo
- statedConditions: both sexes, dog, plasma, PO 10 mg/kg (calculated based on free base), capsule
property: Tmax (h)
Kindly answer with a numeric value in h, unit omitted.

stdin: # Tmax lookup, item CN1CCC(N2Cc3cc(F)ccc3CN(Cc3ccc(OC4CC4)cc3)C2=O)CC1.O=C(O)CC(O)(CC(=O)O)C(=O)O [Crystalline form II]
stdout: 2.25

====

- testSummary: Pharmacokinetics and bioavailability test in beagle dogs (Test Example 4)
- Format: in vivo
- statedConditions: dog, in vivo, IV 0.69 mg/kg (calculated based on free base)
- Procedure: Experimental method: Six healthy beagle dogs were randomly divided into two groups, with two dogs (one female and one male) in the first group, and four dogs (two females and two males) in the second group. […] Plasma was obtained by centrifugation, and drug concentrations in plasma at different time points were measured using LC-MS/MS. Pharmacokinetic parameters and the absolute oral bioavailability were calculated using WinNonlin8.0 software.
property: AUC(0-t) (ng·h/mL)
Kindly answer with a numeric value in ng·h/mL, unit omitted.

stdin: # AUC(0-t) lookup, item CN1CCC(N2Cc3cc(F)ccc3CN(Cc3ccc(OC4CC4)cc3)C2=O)CC1 [citrate]
stdout: 447
